Cited source for all entries: patent US20140086935A1

Examples of binders with documented Kd follow.
Target: rat TIMP-1 (rat, UniProt P30120 24-217)
Sequence (P30120 24-217 limits assumed): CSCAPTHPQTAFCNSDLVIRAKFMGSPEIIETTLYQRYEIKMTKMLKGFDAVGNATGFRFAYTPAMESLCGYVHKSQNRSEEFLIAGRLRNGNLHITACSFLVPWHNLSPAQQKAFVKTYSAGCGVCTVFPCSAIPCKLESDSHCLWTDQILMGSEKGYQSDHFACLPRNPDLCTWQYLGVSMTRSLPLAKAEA
Assay: SPR (BIAcore), TIMP-1 coupled to chip, monovalent Fab
Description: For affinity determination, monomeric fractions of affinity and SEC purified Fab fragments or purified IgG1 molecules were used. All experiments were conducted in HBS buffer at a flow rate of 20 μl/min at 25° C. on a BIAcore™ instrument. Antigens in 100 mM sodium acetate pH 5.0 were coupled to a CM 5 sensor chip using standard EDC-NHS coupling chemistry. […] All sensograms were fitted globally using BIA evaluation software. […]
Give the number; nM is assumed, so skip it.

Here's what some known entries look like.
MS-BW-54 (Fab, V domains shown, Fab, FLAG + Strep-tag II; not tied by name) VH: QVQLVQSGAEVKKPGESLKISCKGSGYSFTSYWIGWVRQMPGKGLEWMGIIYPGDSDTRYSPSFQGQVTISADKSISTAYLQWSSLKASDTAMYYCARYYGFEYDLLFDNWGQGTLVTVSS VL: DIALTQPASVSGSPGQSITISCTGTSSDVGGYNYVSWYQQHPGKAPKLMIYDVSNRPSGVSNRFSGSKSGNTASLTISGLQAEDEADYYCQSYDISGYPVFGGGTKLTVLG ... 9
MS-BW-14 (Fab, V domains shown, Fab, FLAG + Strep-tag II; not tied by name; also called MS-BW-14 Fab) VH: QVQLVQSGAEVKKPGSSVKVSCKASGGTFSSYAISWVRQAPGQGLEWMGGIIPIFGTANYAQKFQGRVTITADESTSTAYMELSSLRSEDTAVYYCARWSDQSYHYYWHPYFDVWGQGTLVTVSS VL: DIVLTQPPSVSGAPGQRVTISCSGSSSNIGSNYVSWYQQLPGTAPKLLIYDNNQRPSGVPDRFSGSKSGTSASLAITGLQSEDEADYYCQSWDLEPYVFGGGTKLTVLG ... 10

Qu. Write down Kd measured for item MS-BW-17 (Fab, V domains shown, Fab, FLAG + Strep-tag II; not tied by name) VH: QVQLVQSGAEVKKPGESLKISCKGSGYSFTSYWIGWVRQMPGKGLEWMGIIYPGDSDTRYSPSFQGQVTISADKSISTAYLQWSSLKASDTAMYYCARLTNYFDSIYYDHWGQGTLVTVSS VL: DIALTQPASVSGSPGQSITISCTGTSSDVGGYNYVSWYQQHPGKAPKLMIYDVSNRPSGVSNRFSGSKSGNTASLTISGLQAEDEADYYCQSYDPSHPSKVFGGGTKLTVLG
Ans. 13
